- TESTED_ON: T1, LAG-3 extracellular domain with a Flag tag (human, UniProt P18627 23-434)
- T1 construct: also called LAG-3-Flag; LAG-3-Flag antigen
- T1 sequence: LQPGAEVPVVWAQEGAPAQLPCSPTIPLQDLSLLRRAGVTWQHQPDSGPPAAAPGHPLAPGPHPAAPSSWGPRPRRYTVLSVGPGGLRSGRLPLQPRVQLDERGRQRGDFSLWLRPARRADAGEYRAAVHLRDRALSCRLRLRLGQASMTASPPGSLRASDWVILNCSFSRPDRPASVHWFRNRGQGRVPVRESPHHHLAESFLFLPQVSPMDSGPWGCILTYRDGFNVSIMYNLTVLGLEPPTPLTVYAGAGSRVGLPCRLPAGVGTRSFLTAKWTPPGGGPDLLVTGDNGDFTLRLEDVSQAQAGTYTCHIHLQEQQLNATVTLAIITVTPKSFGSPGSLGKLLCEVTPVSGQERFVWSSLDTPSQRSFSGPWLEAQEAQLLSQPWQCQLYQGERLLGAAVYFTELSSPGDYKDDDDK
- RUN_DESCRIPTION: SPR (Biacore), antibody captured on anti-human capture chip, LAG-3-Flag in flow
pKd: −log10 of the molar value.
Form field: pKd (one value per entry).
MEASURED_PROPERTY: pKd

1. Hu303-010 (antibody, human IgG4 S228P, kappa, V domains shown, Humanized mAb303) VH: QVQLVQSGAEVKKPGASVKVSCKASGYTFTDYYMNWVRQAPGQRLEWMGVINPYNGDTAYNQKFKGRVTITVDKSASTAYMELSSLRSEDTAVYYCTRDDGYYDYYFDVWGQGTTVTVSS VL: DIQMTQSPSSLSASVGDRVTITCRASQDIGSRLNWYQQKPGKAPKRLIYATSTLDSGVPSRFSGSRSGTDFTLTISSLQPEDFATYYCLQLASSPPTFGGGTKVEIKR :: 9.83
2. mAb229 (antibody, V domains shown, Murine hybridoma antibody; also called LAG-3 antibody mAb229; hybridoma clone mAb229) VH: QIQLVQSGPELKKPGETVKISCKASGYTFTTSGMSWVKQAPGKGLKWMGWINTYSGVPTYADDFKGRFAFSLETSASTAYLQINNLKNEDTATYFCARDNYDARDVYYYAMDYWGQGTSVTVSS VL: DIQMTQSPASLSVSVGETVTITCRASENIYSNLAWYQQKQGKSPQLLVYAATNLADGVPSRFSGSGSGTQYSLKINSLQSEDFGSYYCQHFWITPWTFGGGTKLEIK :: 10.76
3. Hu229-010 (antibody, human IgG4 S228P, kappa, V domains shown, Humanized mAb229) VH: QVQLVQSGSELKKPGASVKVSCKASGYTFTTSGMSWVRQAPGQGLKWMGWINTYSGVPTYADDFKGRFVFSLDTSVSTAYLQISSLKAEDTAVYYCARDNYDARDVYYYAMDYWGQGTTVTVSS VL: DIQMTQSPSSLSASVGDRVTITCRASENIYSNLAWYQQKPGKAPKLLVYAATNLADGVPSRFSGSGSGTQYTLTISSLQPEDFATYYCQHFWITPWTFGGGTKVEIKR :: 10.42

These entries and their values trace back to patent US20220031842A1.
